System: LOX IMVI
Experiment: NCI tumour cell line growth inhibition, 48 h
Calls of active or inactive are those of the source. No stated cut-off is given here; in the data, active = GI50 up to about 1.1 µM and inactive = higher. Where a SMILES comes first, the peptide text is derived from it. Bridges are numbered along the chain shown (N, C = ends). The star is where a group is joined. Cbz = O=C(OCc1ccccc1)*
Give measured GI50 for each item. Keep answers brief.

# GI50 of CN1C(=O)n2c(nc3ccccc32)C(N=[N+]=[N-])(N=[N+]=[N-])C1=O (stereo not given) = 77.3 µM (inactive)

Nc1nc(-c2cccs2)cs1 has a reported GI50 of 79.1 µM (inactive)

compound COC(=O)C1CCCCNC(=O)CCC(NC(=O)OCc2ccccc2)C(=O)N1 (stereo not drawn) (Cbz-Glu-Lys-OMe; lactam 1-2; configuration not given here) , GI50 observed: > 100 µM (inactive)

Per the record, Cc1cccc(/N=N/c2c(C)nn(C(=O)CC(=O)Nc3ccccc3)c2C)c1 has GI50 of > 100 µM (inactive)

Lookup result for Cn1c(CO)ccc1-c1ccc(-c2ccc[se]2)[se]1 ; measured GI50: 47.9 µM (inactive)

---

System: CCRF-CEM
Test: NCI tumour cell line growth inhibition, 48 h
The source made the active and inactive calls. Cut-off read from the data, not from the text of the source: active = GI50 up to about 1.1 µM and inactive = higher.
The reply should be one of these categories: 1 (yes) (active), 0 (no) (inactive)

Exercise: Called result for CN1c2ccccc2C(=O)NC12CCN(Cc1ccccc1)CC2
Solution: 0 (no)

Exercise: I'd appreciate the recorded outcome for CCC1(c2ccc(OC)c(OC)c2)CCN(S(=O)(=O)c2ccc(C)cc2)C1 (configuration not stated) from this test.
Solution: 0 (no)

Exercise: Dear colleague, could you share the recorded outcome for O=C(CSc1nc(=O)c(-c2ccccc2NC(=O)C(F)(F)F)n[nH]1)NC(=O)Nc1ccccc1 when you have a moment?
Solution: 0 (no)

Exercise: # outcome recorded in this test, key = O=C1c2ccccc2S(=O)(=O)c2c1cccc2[N+](=O)[O-]
Solution: 0 (no)

Exercise: Given Cc1cc(C)c(C2CC(O)C(CO)O2)cc1C (configuration not stated) , state the outcome it received in this test.
Solution: 0 (no)

Exercise: Assay outcome for O=C(O)CCNC(=O)c1cc(N(CCBr)CCBr)c([N+](=O)[O-])cc1[N+](=O)[O-] : what was it?
Solution: 0 (no)

Exercise: Record request — test call for O=c1[nH]c2ccc(Cl)cc2o1
Solution: 0 (no)

Exercise: Which result was noted for this compound in the test: CCOC(=O)C1(C(=O)OCC)CCC(C(OC)OC)C(CC(=O)OC)C1 (configuration not stated)
Solution: 0 (no)

Exercise: Returns: the outcome recorded for N#CC(C#N)=Cc1c(O)ccc2ccccc12 in this assay.
Solution: 0 (no)

Exercise: What was the test verdict on OC(CCN1CCN(CCOC(c2ccc(F)cc2)c2ccc(F)cc2)CC1)c1ccc(Br)cc1 (configuration not stated) ?
Solution: 0 (no)

Exercise: I'd appreciate the recorded outcome for COC(O)C(=O)c1c2c(cc3c1CCC3)CCC2 (configuration not stated) from this test.
Solution: 0 (no)

Exercise: Short answer needed: outcome of this test for N#CC1CNC(N)NC1N (configuration not stated) ?
Solution: 1 (yes)

---

Tested on: SK-OV-3
Assay: NCI tumour cell line growth inhibition, 48 h
Activity calls are given as the source filed them. Cut-off read from the data, not from the text of the source: active = GI50 up to about 1.1 µM and inactive = higher.
endpoint: GI50

Summary for this molecule, COc1cc2c(cc1OC)C(Cl)C(c1ccc(Cl)c(Cl)c1)=C2Cl (configuration not stated) : GI50 is 15.5 µM (inactive)

Record summary for O=[N+]([O-])/C(C(Cl)=C(Cl)Cl)=C1\Nc2ccc([N+](=O)[O-])cc2N1 : reported GI50 = > 100 µM (inactive)

For Cc1ccc2c(c1)nc(N)n[n+]2[O-] the molecule record lists GI50 as > 100 µM (inactive)

Looking up CC(N/N=C(\S)N1CCCCCC1)c1cccnn1 (configuration not stated) , I see its GI50 listed as 0.409 µM (active)

# GI50 of Nc1nc(SCc2ccc([N+](=O)[O-])cc2)nc2c1ncn2C1OC(COP(=O)(O)O)C(O)C1O (configuration not stated) = > 100 µM (inactive)

Sure, the documented GI50 for Clc1ccc(C2=Nc3ccccc3SC(c3cccs3)C2)cc1 (configuration not stated) is 16.8 µM (inactive)

Given item Nc1nc(Cl)cc(NCC2(CO)CCC(O)C2)n1 (configuration not stated) , the value recorded as its GI50 is > 100 µM (inactive)

What the record says about Cc1cc(Cl)cc2c1NC(=O)/C2=N\Nc1ccccc1[N+](=O)[O-] : GI50 is > 100 µM (inactive)

GI50 in this record for C#C[C@]1(O)CC[C@H]2[C@@H]3CCC4=C/C(=N/OC(=O)c5cccc6cc7ccccc7nc56)CC[C@@H]4[C@H]3CC[C@@]21CC : > 100 µM (inactive)

Kindly note the recorded GI50 for COc1cc(NS(=O)(=O)c2ccc(C)cc2)c2nccnc2c1 , which is 84.9 µM (inactive)

GI50 reading for COc1cc(CNC(=S)CCCCCCCCCCC(C)C)ccc1O : > 100 µM (inactive)

The measured GI50 associated with Nc1c(-c2ccccc2)c2ccc([N+](=O)[O-])cc2c(=O)n1-c1cccc(C(=O)O)c1 reads > 100 µM (inactive)

// field: GI50; key: N#CC(c1ccc(Cl)cc1)c1c(=O)[nH]c2ccc(N)cc2[n+]1[O-] (configuration not stated) ; value = > 100 µM (inactive)

Sample CCOc1ccccc1NC(=O)/C=C1\NC(=O)CS1 ; GI50 observed: > 100 µM (inactive)

The molecule O=C(Nc1ccc(Cl)c(Cl)c1)C(=O)C(C1OC(=O)c2ccccc21)[N+](=O)[O-] (configuration not stated) showed GI50 equal to > 100 µM (inactive)

Item: CCOP(=O)(OCC)C(Nc1cccc([N+](=O)[O-])c1)c1ccccc1 (configuration not stated) | GI50: > 100 µM (inactive)

GI50 reading for O=C1/C(=C/c2ccc(O)c(O)c2)CC/C1=C\c1ccc(O)c(O)c1 : 12.1 µM (inactive)

Lab book: GI50 of Sc1nnc(CCCCCCCCc2nnc(S)o2)o1 noted as > 100 µM (inactive)

Field GI50 (entry Cc1ccc(Nc2nc(=O)[nH]c(=O)[nH]2)cc1N ) reads > 100 µM (inactive)

GI50 for O=c1[nH]c(Br)nc2c(N3CCCCC3)c[nH]c12 is > 100 µM (inactive)

// field: GI50; key: OC(CC1CCCCN1)c1ccc2c(c1)oc1ccccc12 (configuration not stated) ; value = > 100 µM (inactive)

Quick note, GI50 for c1ccc2c(Nc3ccc(Oc4ccc(Nc5c6ccccc6nc6ccccc56)cc4)cc3)c3ccccc3nc2c1 landed at 1.72 µM (inactive)
